Hey, just so you know, these numbers are from patent US10722484B2.

- Tested on: KP-4
- PROTOCOL DESCRIPTION: Proliferation assay (CellTiter Glo)
- Type: cell-based
- REPORTED CONDITIONS: KP-4 (K-RAS: G12C); absolute EC50; 96 hours; read-out: Ab EC50
QUANTITY KIND: EC50

As a guide, the following entries are already answered.
{"MOLECULE": "CC(=O)OCC1=CC2C3C(C)(C)C3(OC(C)=O)CC(C)C2(O)C2C=C(C)C(=O)C2(O)C1 (stereo not drawn) [Compound K101E]", "EC50": "1.28 µM"}
{"MOLECULE": "CC(=O)OC12CC(C)C3(O)C(C=C(CO)CC4(O)C(O)C(C)=CC43)C1C2(C)C (stereo not drawn) [Compound K101C]", "EC50": "11 µM"}

EC50 for CC(=O)OC12CC(C)C3(O)C(C4OC4(CO)CC4(O)C(O)C(C)=CC43)C1C2(C)C (stereo not drawn) [Compound K101D] is > 30 µM

* * *

- Test system: H727
- PROTOCOL DESCRIPTION: Proliferation assay (CellTiter Glo)
- Type: cell-based
- REPORTED CONDITIONS: H727; relative EC50; 96 hours; read-out: Re EC50
QUANTITY KIND: EC50 (µM)
The figure you give is taken to be in µM; do not add the unit.

{"COMPOUND": "CC(=O)OC12CC(C)C3(O)C(C4OC4(CO)CC4(O)C(O)C(C)=CC43)C1C2(C)C (stereo not drawn) [Compound K101D]", "VALUE REPORTED": 8.37}

// EC50 lookup, compound = CC(=O)OCC1=CC2C3C(C)(C)C3(OC(C)=O)CC(C)C2(O)C2C=C(C)C(=O)C2(O)C1 (stereo not drawn) [Compound K101E] , result: 0.62

EC50 measured on CC(=O)OC12CC(C)C3(O)C(C=C(CO)CC4(O)C(O)C(C)=CC43)C1C2(C)C (stereo not drawn) [Compound K101C] = 3.61

* * *

- Test system: HT29
- PROTOCOL DESCRIPTION: Proliferation assay (CellTiter Glo)
- Assay type: cell-based
- REPORTED CONDITIONS: HT29 (RAS WT); 96 hours
Measured Top Inhibition % by item
Unit % implied. Number only.

Worked examples, 5 compounds total:
{"COMPOUND": "CCC/C=C/C=C/C(=O)O[C@H]1/C(=C/C(=O)OC)C[C@H]2C[C@H]([C@@H](C)O)OC(=O)C[C@H](O)C[C@@H]3C[C@H](OC(C)=O)C(C)(C)[C@](O)(C[C@@H]4C/C(=C/C(=O)OC)C[C@H](/C=C/C(C)(C)[C@]1(O)O2)O4)O3", "TESTED ON": "HT29", "Top Inhibition % / %": 4.3}
{"COMPOUND": "C/C=C(/C)C(=O)O[C@H]1C(C)=C[C@]23C(=O)[C@@H](C=C(CO)[C@@H](O)[C@]12O)[C@H]1[C@@H](C[C@H]3C)C1(C)C [Compound K102, ingenol-3-angelate]", "TESTED ON": "HT29", "Top Inhibition % / %": 17.3}
{"COMPOUND": "CC(=O)OCC1=CC2C3C(C)(C)C3(OC(C)=O)CC(C)C2(O)C2C=C(C)C(=O)C2(O)C1 (stereo not drawn) [Compound K101E]", "TESTED ON": "HT29", "Top Inhibition % / %": 31.7}
{"COMPOUND": "CC(=O)OC12CC(C)C3(O)C(C=C(COC(=O)CC(N)C(=O)[O-])CC4(O)C(=O)C(C)=CC43)C1C2(C)C.[Na+] (stereo not drawn) [Compound K101I]", "TESTED ON": "HT29", "Top Inhibition % / %": 11.8}
{"COMPOUND": "CC(=O)OC12CC(C)C3(O)C(C=C(CO)CC4(O)C(O)C(C)=CC43)C1C2(C)C (stereo not drawn) [Compound K101C]", "TESTED ON": "HT29", "Top Inhibition % / %": 4.8}

// CC(=O)O[C@@]12C[C@@H](C)[C@@]3(O)[C@@H](C=C(CO)C[C@]4(O)C(=O)C(C)=C[C@@H]34)[C@@H]1C2(C)C [Compound K101A, 12-deoxyphorbol 13-acetate] : Top Inhibition % value = 12.8

Documented Top Inhibition % of CC(=O)OC12CC(C)C3(O)C(C4OC4(CO)CC4(O)C(O)C(C)=CC43)C1C2(C)C (stereo not drawn) [Compound K101D] : 10.0

Short answer for CC(=O)O[C@H]1C(=O)[C@@]2(C)[C@H]([C@H](OC(=O)c3ccccc3)[C@]3(O)C[C@H](OC(=O)[C@H](O)[C@@H](NC(=O)c4ccccc4)c4ccccc4)C(C)=C1C3(C)C)[C@]1(OC(C)=O)CO[C@@H]1C[C@@H]2O : Top Inhibition % was 93.8

Item: CCCCCCCCCCCCCC(=O)O[C@@H]1[C@@H](C)[C@@]2(O)[C@@H](C=C(CO)C[C@]3(O)C(=O)C(C)=C[C@@H]23)[C@@H]2C(C)(C)[C@]12OC(C)=O [Compound K103, 12-O-Tetradecanoylphorbol-13-acetate] | Top Inhibition %: 20.9
